Source of measurements: PubChem BioAssay (NCATS)

procedure text: Identifying Small Molecule Inhibitors of Pancreatic Cancer Stem Cells (SN12C, Adherent) (AID 1259358);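 also: cell survival measured after 48 h of compound exposure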; also: potency is read from the fitted curve at half-maximal effect
measurement context: viability/growth inhibition; series mostly up to 46.1 µM
Inconclusive results are not listed. The source made the active and inactive calls. Calls follow the shape of the dose curve; as a rule, active = well fitted cell-killing curve with a large enough effect; inconclusive = small, poorly fitted or top-dose-only effect; inactive = flat fitted curve, though single readings scatter.
recorded endpoint: Potency

Guide cases for Potency, answers given:
{"compound": "O=C(O)c1ccc(-c2cc3cccnc3c(-c3ccc4nonc4c3)n2)cc1", "Potency": "inactive"}
{"compound": "COc1ccc(C2CC(c3ccccc3)=NN2c2ccc(S(N)(=O)=O)cc2)cc1 (stereo unspecified)", "Potency": "inactive"}
{"compound": "COc1ncc(-c2ccc3nccc(-c4ccnnc4)c3c2)cc1NS(=O)(=O)c1ccc(F)cc1F", "Potency": "inactive"}
{"compound": "Clc1ccc(-c2nc3sccn3c2C=NOCc2ccc(Cl)c(Cl)c2)cc1", "Potency": "inactive"}
{"compound": "COc1cccc2c1CCCC2CCCN1CCN(C2CCCCC2)CC1 (stereo unspecified)", "Potency": "16.6 µM (active)"}
{"compound": "CO[C@H]1C=CC=C(C)C(=O)NC2=CC(=O)C(NCCN(C)C)=C(C[C@@H](C)C[C@H](OC)[C@@H](O)[C@@H](C)C=C(C)[C@@H]1OC(N)=O)C2=O", "Potency": "0.0935 µM (active)"}
{"compound": "COc1cc2ncnc(-n3nc(-c4ccccn4)nc3N)c2cc1OC", "Potency": "5.9 µM (active)"}
{"compound": "COc1cc(N2CCC(N3CCN(C)CC3)CC2)ccc1Nc1ncc(Cl)c(Nc2ccccc2S(=O)(=O)C(C)C)n1", "Potency": "18.7 µM (active)"}
{"compound": "O=C1C(Cl)=C(NCCN2CCOCC2)C(=O)c2ncccc21", "Potency": "6.62 µM (active)"}
{"compound": "CS(=O)c1ccc(-c2nc(-c3ccc(F)cc3)c(-c3ccncc3)[nH]2)cc1 (stereo unspecified)", "Potency": "inactive"}

Hi there! I need Potency for each item below, if you can.
1. CCOC(CN1C(=O)[C@](CC(=O)Nc2ccc(C)cc2)(NC(=O)Nc2ccc(C)cc2)c2ccccc21)OCC
2. CO[C@@H](C(=O)N1Cc2[nH]nc(NC(=O)c3ccc(N4CCN(C)CC4)cc3)c2C1)c1ccccc1
3. CN1CCN(CCOc2cc(OC3CCOCC3)c3c(Nc4c(Cl)ccc5c4OCO5)ncnc3c2)CC1
4. c1ccc2c(-c3cnn4cc(-c5ccc(N6CCNCC6)cc5)cnc34)ccnc2c1
5. CC1=C(/C=C/C(C)=C/C=C/C(C)=C/C(=O)Nc2ccc(O)cc2)C(C)(C)CCC1

23.5 µM (active)
0.743 µM (active)
1.87 µM (active)
26.4 µM (active)
inactive

State the recorded Potency for this entry: `CO[C@H]1C[C@@H]2CC[C@@H](C)[C@@](O)(O2)C(=O)C(=O)N2CCCC[C@@H]2C(=O)O[C@H]([C@H](C)C[C@@H]2CC[C@H](OCCO)[C@H](OC)C2)CC(=O)[C@H](C)C=C(C)[C@@H](O)[C@@H](OC)C(=O)[C@H](C)C[C@H](C)C=CC=CC=C1C`
18.7 µM (active)
